Molecular target: µ-calpain (Sus scrofa)
Sequence (P35750 whole entry): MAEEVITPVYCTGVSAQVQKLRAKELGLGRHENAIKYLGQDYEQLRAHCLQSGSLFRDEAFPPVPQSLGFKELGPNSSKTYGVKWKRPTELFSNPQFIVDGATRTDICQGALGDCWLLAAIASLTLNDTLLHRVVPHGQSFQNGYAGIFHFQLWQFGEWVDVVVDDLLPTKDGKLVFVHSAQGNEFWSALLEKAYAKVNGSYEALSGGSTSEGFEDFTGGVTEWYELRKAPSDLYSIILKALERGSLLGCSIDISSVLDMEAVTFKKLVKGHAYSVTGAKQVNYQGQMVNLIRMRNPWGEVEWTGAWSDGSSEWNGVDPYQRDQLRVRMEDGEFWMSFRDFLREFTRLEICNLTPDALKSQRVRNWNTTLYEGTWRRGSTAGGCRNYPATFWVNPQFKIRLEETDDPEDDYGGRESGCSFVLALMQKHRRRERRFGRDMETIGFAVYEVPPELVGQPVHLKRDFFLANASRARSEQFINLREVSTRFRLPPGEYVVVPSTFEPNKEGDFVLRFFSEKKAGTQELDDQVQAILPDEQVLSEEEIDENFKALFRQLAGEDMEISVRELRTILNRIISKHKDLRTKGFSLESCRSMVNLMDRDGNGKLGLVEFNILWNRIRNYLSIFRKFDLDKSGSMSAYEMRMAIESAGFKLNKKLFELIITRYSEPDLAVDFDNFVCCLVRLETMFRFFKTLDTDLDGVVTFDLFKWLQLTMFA
Sequence (P04574 whole entry partner): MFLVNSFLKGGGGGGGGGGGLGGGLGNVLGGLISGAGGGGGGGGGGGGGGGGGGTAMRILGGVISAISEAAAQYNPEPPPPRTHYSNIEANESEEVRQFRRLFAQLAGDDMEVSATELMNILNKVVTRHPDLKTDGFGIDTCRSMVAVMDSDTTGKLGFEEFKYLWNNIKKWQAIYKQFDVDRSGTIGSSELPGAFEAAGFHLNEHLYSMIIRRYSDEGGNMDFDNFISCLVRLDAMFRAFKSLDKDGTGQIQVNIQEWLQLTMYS
Endpoint Name: Ki (nM)

>>> reported_value("CC[C@H](NC(=O)[C@H](CC(C)C)NC(=O)OCc1ccccc1)C(=O)C(=O)NCc1cc(OC)cc(OC)c1 [mCalp-I]")
940

Entry source: paper PMC3895372
